MEASUREMENT DESCRIPTION: Antiproliferative activity against human Hep3B cells after 48 hrs by SRB assay
Type: functional, Hep 3B2
SETTINGS: Homo sapiens, Hep3B, 48 h
Record form. Attribute: GI50. Fill in for each entry.
Write down the numeric answer in nM and omit the unit.

Q: What measured GI50 goes with "CC(C)CCc1c(OCCCCCCC(=O)NO)ccc2ccc(=O)oc12" ?
A: 750

Q: Same question for "CC(C)CCc1c(OCCCCC(=O)NO)ccc2ccc(=O)oc12" please.
A: 1310

Q: Same question for "CC(C)CCc1c(OCCCCC(=O)NO)ccc(CCC(=O)NO)c1O" please.
A: 14100

Q: Same question for "CC(C)CCc1c(OCCCCCCCC(=O)NO)ccc(CCC(=O)NO)c1O" please.
A: 1270

###

MEASUREMENT DESCRIPTION: Antiproliferative activity against human Hep3B cells after 48 hrs by SRB assay
Assay type: functional, Hep 3B2
SETTINGS: Homo sapiens, Hep3B, 48 h
Record form. Attribute: GI50. Fill in for each entry.

Q: What measured GI50 goes with "CC(C)CCc1c(OCCCCCCCC(=O)NO)ccc2c1OC(=O)CC2" ?
A: > 30 µM

Q: Same question for "CC(C)CCc1c(OCCCCCC(=O)NO)ccc(CCC(=O)NO)c1O" please.
A: 1.98 µM

Q: Same question for "CC(C)CCc1c(OCCCCCCC(=O)NO)ccc(CCC(=O)NO)c1O" please.
A: 4.72 µM

Q: Same question for "CC(C)CCc1c(OCCCCCCC(=O)NO)ccc2c1OC(=O)CC2" please.
A: > 30 µM

Q: Same question for "CC(C)CCc1c(OCCCCCCCC(=O)NO)ccc2ccc(=O)oc12" please.
A: 3.58 µM
